tested on: SK-BR-3; assay: Antiproliferative activity against human SK-BR-3 cells; format: functional, cell-based
parameter: IC50 (nM)
Numbers only, in nM.

Name the reported IC50 value associated with the compound COc1cc2ncnc(Nc3ccc(F)c(Cl)c3)c2cc1NC(=O)/C=C/CN1CCCCC1 [DACOMITINIB ANHYDROUS]
15

* * *

For each of the molecules below, state its AUC(0-inf).
assay: AUC (0 to infinity) in Sprague-Dawley rat at 2 mg/kg, iv administered as single dose; assay type: ADME, organism-based; parameters: route intravenous, time infinity, dose 2 mg/kg; conditions: in vivo
Give bare numbers, in ng·h/mL.

INSERT INTO results (molecule, parameter, numeric_result) VALUES
  ('C=CC(=O)Nc1cc(Nc2nccc(-c3cn(C4CC4)c4ccccc34)n2)c(OC)cc1[S+]([O-])CCN(C)C (configuration not stated)', 'AUC(0-inf)', 340);

Using the record for C=CC(=O)Nc1cc(Nc2nccc(-c3cn(C)c4ccccc34)n2)c(OC)cc1[S+]([O-])CCN(C)C (configuration not stated) , report its AUC(0-inf).
406
